biological target: human Dipeptidyl-peptidase (DPP-IV) (Homo sapiens); construct: purchased Sigma Chemical Co. (St. Louis, MO, USA); assay: Stability of synthesized peptides against DPP-IV (pre-incubation experiment, LC-MS and inhibition assay); assay type: biochemical; conditions: peptide 500 µM, after pre-incubation with DPP-IV 3 h at 37 °C
Peptide text beside a SMILES is read from it.
test-readout: DPP-IV inhibitory activity, after pre-incubation (%)

compound="CC(C)C[C@H](N)C(=O)N1CCC[C@H]1C(=O)N[C@@H](CO)C(=O)N[C@@H](Cc1c[nH]c2ccccc12)C(=O)O [LPSW] (H-LPSW-OH)" study_system="human Dipeptidyl-peptidase (DPP-IV) (Homo sapiens)" experimental_value=55.22
compound="CC(C)C[C@H](NC(=O)[C@H](CCC(N)=O)NC(=O)[C@H](CC(C)C)NC(=O)[C@@H](N)Cc1c[nH]c2ccccc12)C(=O)O [WLQL] (H-WLQL-OH)" study_system="human Dipeptidyl-peptidase (DPP-IV) (Homo sapiens)" experimental_value=55.28
compound="CC(C)C[C@H](NC(=O)[C@@H]1CCCN1C(=O)[C@@H](N)CC(C)C)C(=O)N[C@@H](Cc1ccccc1)C(=O)O [LPLF] (H-LPLF-OH)" study_system="human Dipeptidyl-peptidase (DPP-IV) (Homo sapiens)" experimental_value=41.09
compound="CC(C)C[C@H](NC(=O)[C@H](C)NC(=O)[C@H](CC(C)C)NC(=O)CNC(=O)[C@@H]1CCCN1C(=O)[C@@H](N)C(C)C)C(=O)O [VPGLAL] (H-VPGLAL-OH)" study_system="human Dipeptidyl-peptidase (DPP-IV) (Homo sapiens)" experimental_value=58.66

====

biological target: human Dipeptidyl-peptidase (DPP-IV) (Homo sapiens, UniProt P27487); construct: purchased Sigma Chemical Co. (St. Louis, MO, USA); assay: Stability of synthesized peptides against DPP-IV (pre-incubation experiment, LC-MS and inhibition assay); format: biochemical; details: peptide 500 µM, without pre-incubation
Sequence (P27487 whole entry): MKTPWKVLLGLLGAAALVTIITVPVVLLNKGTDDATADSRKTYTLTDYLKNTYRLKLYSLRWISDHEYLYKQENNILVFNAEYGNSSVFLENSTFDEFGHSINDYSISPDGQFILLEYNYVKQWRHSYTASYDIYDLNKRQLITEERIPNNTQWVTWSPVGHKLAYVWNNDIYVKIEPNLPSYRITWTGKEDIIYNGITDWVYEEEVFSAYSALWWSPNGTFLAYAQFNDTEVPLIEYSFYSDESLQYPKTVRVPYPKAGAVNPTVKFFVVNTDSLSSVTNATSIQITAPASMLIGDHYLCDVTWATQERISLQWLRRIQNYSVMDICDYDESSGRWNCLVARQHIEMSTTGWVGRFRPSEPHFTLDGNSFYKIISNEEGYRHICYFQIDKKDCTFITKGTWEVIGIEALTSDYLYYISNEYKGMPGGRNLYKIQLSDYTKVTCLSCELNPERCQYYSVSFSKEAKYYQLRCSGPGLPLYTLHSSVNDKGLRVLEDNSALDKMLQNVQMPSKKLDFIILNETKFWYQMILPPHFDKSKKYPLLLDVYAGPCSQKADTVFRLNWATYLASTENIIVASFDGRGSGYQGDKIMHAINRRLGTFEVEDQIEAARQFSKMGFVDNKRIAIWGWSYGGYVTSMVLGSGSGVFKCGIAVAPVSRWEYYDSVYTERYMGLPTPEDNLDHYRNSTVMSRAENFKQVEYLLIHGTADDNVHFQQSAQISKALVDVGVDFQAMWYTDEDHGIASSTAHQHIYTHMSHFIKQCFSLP
Peptide text beside a SMILES is read from it.
test-readout: DPP-IV inhibitory activity, without pre-incubation (%)

Answered examples (2):
compound="CC(C)C[C@H](NC(=O)[C@H](CCC(N)=O)NC(=O)[C@H](CC(C)C)NC(=O)[C@@H](N)Cc1c[nH]c2ccccc12)C(=O)O [WLQL] (H-WLQL-OH)" measurement_units=% experimental_value=53.06
compound="CC(C)C[C@H](NC(=O)[C@H](C)NC(=O)[C@H](CC(C)C)NC(=O)CNC(=O)[C@@H]1CCCN1C(=O)[C@@H](N)C(C)C)C(=O)O [VPGLAL] (H-VPGLAL-OH)" measurement_units=% experimental_value=66.14

P = CC(C)C[C@H](N)C(=O)N1CCC[C@H]1C(=O)N[C@@H](CO)C(=O)N[C@@H](Cc1c[nH]c2ccccc12)C(=O)O [LPSW] (H-LPSW-OH)
Q = CC(C)C[C@H](NC(=O)[C@@H]1CCCN1C(=O)[C@@H](N)CC(C)C)C(=O)N[C@@H](Cc1ccccc1)C(=O)O [LPLF] (H-LPLF-OH)
Ask: Lab notebook, comparison: P versus Q , higher DPP-IV inhibitory activity, without pre-incubation goes to which? Pick one and reply with its label.
Reply: P
(P: 76.72%, Q: 52.79%)
